The measurements presented in this section are drawn from PubChem BioAssay (NCI).

experiment: NCI Yeast Anticancer Drug Screen. Data for the rad18 strain (AID 177); settings: S. cerevisiae rad18 mutant growth inhibition; at 11.0 µM; stronger effect = higher value
This is part of a sample that, as a whole, favours compounds with a hit. Of some 79,000 tested, about 15% had one in any assay.
Catalogue of growth inhibition readings, one per entry.
Observable: growth inhibition (%)

| Compound | Observable | Reading |
| --- | --- | --- |
| CN(C)c1nc2sc3c(c2c(=O)o1)CCCC3 | growth inhibition | 3 |
| Nc1ccc2c(c1)C(=O)c1cccc(N)c1C2=O | growth inhibition | 91 |
| C/C(=N\O)C1CC2C=C(C#N)C1N(Cc1ccccc1)C2 (stereo unspecified) | growth inhibition | 40 |
| CN(C)c1ccc(C(C#N)=C(C#N)C#N)cc1 | growth inhibition | 5 |
| c1ccc2c(c1)NC(NC1Nc3ccccc3N1)N2 | growth inhibition | 29 |
| O=C1C=CC(=Nc2ccc3c(c2)Cc2cc(NC(=O)C(F)(F)F)ccc2-3)O1 | growth inhibition | 32 |
| O=C1c2ccccc2-c2n[nH]c3cccc1c23 | growth inhibition | -1 |
| CC(C)OC(=O)Oc1ccccc1OC(=O)OC(C)C | growth inhibition | 0 |
| N#Cc1c(N)[nH]c2ccc(Sc3ccccc3)cc12 | growth inhibition | 87 |
| Cn1c(N)nc(-c2ccc(Cl)cc2)c1SSc1c(-c2ccc(Cl)cc2)nc(N)n1C | growth inhibition | 34 |
| CC1=C(C)Cc2c(O)ccc(O)c2C1 | growth inhibition | 18 |
| CN(Cc1cnc2nc(N)nc(N)c2n1)c1ccc(C(=O)N[C@@H](CCC(=O)O)C(=O)O)cc1 | growth inhibition | 4 |
| N#CC(C(=O)Nc1ccccc1)C1=C(Cl)C(=O)c2ccccc2C1=O (stereo unspecified) | growth inhibition | 90 |
| c1ccc2c(c1)C(=NCCCN1CCCCCC1)c1cccn1-2 | growth inhibition | 4 |
| NC(N)=N/N=C\c1c2ccccc2cc2ccccc12 | growth inhibition | -51 |
| O=C1C(=O)c2ccccc2C=C1[N+](=O)[O-] | growth inhibition | 89 |
| S=C(N/N=C(/c1ccccc1)c1ccccn1)N1CCCCCC1 | growth inhibition | 20 |
| N#CSc1ccc(S(N)(=O)=O)cc1 | growth inhibition | -57 |
| Cc1ccc(Cl)c2[nH]c(-c3ccccc3)cc(=O)c12 | growth inhibition | -6 |
| CCC(C(=O)O)C1=C(c2ccccc2)CCc2ccccc21 (stereo unspecified) | growth inhibition | 97 |
| [N-]=N[N+]#I1OC(C(F)(F)F)(C(F)(F)F)c2ccccc21 | growth inhibition | 98 |
| CN(C)Cc1cc(N=Nc2ccc(Cl)cc2)cc(CN(C)C)c1O | growth inhibition | 25 |
| COc1ccc2nc3cccc([N+](=O)[O-])c3c(NCCN(CCO)CCO)c2c1 | growth inhibition | 96 |
| O=C(CC(=O)n1nc(-c2ccccc2)c(N=Nc2ccccc2C(=O)O)c1-c1ccccc1)Nc1ccc(Cl)cc1 | growth inhibition | 3 |
| O=C(NCCCCNCCCNC(=O)c1cc(-c2ccccc2)nc2ccccc12)c1cc(-c2ccccc2)nc2ccccc12 | growth inhibition | -1 |
| CC[n+]1ccc2c(C)c3[nH]c4ccc(O)cc4c3c(C)c2c1 | growth inhibition | 23 |
| CC(C)(CN1CCCCC1)C(=O)CC(SCCS(=O)(=O)O)c1ccc(Br)cc1 (stereo unspecified) | growth inhibition | 29 |
| S=C(Nc1ccc(Cl)c(Cl)c1)SCc1ccc2c(c1)OCO2 | growth inhibition | 99 |
| CCc1ncnc2cc(OCC3CO3)c(OC)cc12 (stereo unspecified) | growth inhibition | 92 |
| CSC1=NNC(SC)=NN1 | growth inhibition | 60 |
| O=C1OC(=O)C2CCCC3CCCC1C32 (stereo unspecified) | growth inhibition | 94 |
| CC(Br)C(=O)c1ccc2cc(Br)c3ccccc3c2c1 (stereo unspecified) | growth inhibition | 17 |
| c1ccc2c(c1)Oc1cccc3cccc-2c13 | growth inhibition | 25 |
| COC(=O)c1cc(-c2ccc(C)cc2)[nH]c(=O)c1C#N | growth inhibition | -16 |
| Cc1ccc2ccc(O)cc2c1 | growth inhibition | -22 |
| CCN(CC)CCN1C(=O)c2cccc3cc(OC)cc(c23)C1=O | growth inhibition | -13 |
| COc1ccc(/C(C)=N/OC(=O)c2c(-c3ccccc3Cl)noc2C)cc1CN1CCOCC1 | growth inhibition | -2 |
| O=C([O][Sn]([O]C(=O)c1ccccc1)([c]1ccccc1)[c]1ccccc1)c1ccccc1 | growth inhibition | -2 |
| CC(=O)Oc1ccc2c(c1)Cc1cc(N=C3C=CC(=O)O3)ccc1-2 | growth inhibition | 97 |
| CCOC(=O)C(NC(=O)c1ccccc1)(N1CCN(c2cc3c(cc2F)c(=O)c(C(=O)O)cn3C2CC2)CC1)C(F)(F)F (stereo unspecified) | growth inhibition | 0 |
| COC(=O)c1ccc(CCC2=CC(=O)C(Br)=CC2=O)cc1 | growth inhibition | -8 |
| CC(C)[N+]([O-])(CCCNc1c2ccccc2nc2cccc([N+](=O)[O-])c12)C(C)C | growth inhibition | 96 |
| COc1ccc(-c2cn(-c3ccc(I)cc3)c3ncnc(N)c23)cc1 | growth inhibition | -10 |
| S=C(N/N=C/c1ccccn1)Nc1ccc(Cl)cc1 | growth inhibition | -5 |
| CCCN(CCC)CC(O)c1cc(-c2ccc(Cl)cc2)nc2c(C)c(Cl)ccc12 (stereo unspecified) | growth inhibition | 98 |
| COc1cc(CC2CC(c3ccc4c(c3)OCO4)OC2=O)cc(OC)c1OC (stereo unspecified) | growth inhibition | -1 |
